# target entity: T1, human EphB6 (Homo sapiens, UniProt O15197)
# T1 construct: a protein of the extracellular region of each human Eph receptor fused with the SEAP protein and the His tag; made in house; host or cells: Expi293F cells
# T1 sequence (O15197 32-594 limits assumed): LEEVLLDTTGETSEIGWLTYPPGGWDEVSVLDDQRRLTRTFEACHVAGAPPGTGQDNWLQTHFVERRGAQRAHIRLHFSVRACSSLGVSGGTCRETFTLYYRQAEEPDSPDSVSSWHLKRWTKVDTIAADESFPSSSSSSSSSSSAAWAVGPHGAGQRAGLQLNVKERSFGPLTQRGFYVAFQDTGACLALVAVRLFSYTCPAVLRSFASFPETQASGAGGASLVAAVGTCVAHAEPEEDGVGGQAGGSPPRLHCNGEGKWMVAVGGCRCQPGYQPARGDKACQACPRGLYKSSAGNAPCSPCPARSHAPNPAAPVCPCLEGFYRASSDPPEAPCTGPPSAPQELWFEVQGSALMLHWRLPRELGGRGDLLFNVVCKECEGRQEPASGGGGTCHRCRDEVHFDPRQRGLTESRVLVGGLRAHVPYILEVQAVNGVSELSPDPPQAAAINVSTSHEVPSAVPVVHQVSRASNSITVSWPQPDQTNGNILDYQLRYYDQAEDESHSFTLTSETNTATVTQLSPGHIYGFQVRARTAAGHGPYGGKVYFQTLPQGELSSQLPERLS
# assay: Selectivity ELISA of humanized antibodies for human Eph receptor
# Type: binding
# protocol conditions: coated protein 1 nM
Field: hEphB6-SEAP-: absorbance at 450 nm, percentage with respect to hEphA4-SEAP-His as 100%. Provide a value for each of the molecules that follow.
Report the value in % with no unit label.

Problem: Answer with the recorded hEphB6-SEAP-: absorbance at 450 nm, percentage with respect to hEphA4-SEAP-His as 100% of 159 (antibody, V domains shown, synthetic humanized antibody heavy chain variable region sequence; synthetic humanized antibody light chain variable region sequence) VH: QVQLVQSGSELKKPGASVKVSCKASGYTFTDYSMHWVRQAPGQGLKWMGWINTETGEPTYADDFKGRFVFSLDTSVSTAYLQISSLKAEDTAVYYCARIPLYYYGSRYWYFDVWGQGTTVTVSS VL: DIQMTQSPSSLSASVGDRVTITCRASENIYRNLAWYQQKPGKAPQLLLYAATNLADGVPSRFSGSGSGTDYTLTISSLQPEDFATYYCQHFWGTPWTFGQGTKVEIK only.
Solution: 5.5

Problem: Answer with the recorded hEphB6-SEAP-: absorbance at 450 nm, percentage with respect to hEphA4-SEAP-His as 100% of 93 (antibody, V domains shown, constant regions without entry; synthetic humanized antibody light chain variable region sequence; synthetic humanized antibody heavy chain variable region sequence) VL: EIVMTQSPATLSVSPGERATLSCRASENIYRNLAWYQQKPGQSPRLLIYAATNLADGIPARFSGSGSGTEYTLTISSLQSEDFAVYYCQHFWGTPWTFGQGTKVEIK VH: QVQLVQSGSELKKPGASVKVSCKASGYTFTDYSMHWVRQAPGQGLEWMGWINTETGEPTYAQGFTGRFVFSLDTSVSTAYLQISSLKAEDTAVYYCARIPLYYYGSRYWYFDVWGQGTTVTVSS only.
Solution: 4.9

Problem: Answer with the recorded hEphB6-SEAP-: absorbance at 450 nm, percentage with respect to hEphA4-SEAP-His as 100% of 91 (antibody, V domains shown, constant regions without entry; synthetic humanized antibody light chain variable region sequence; synthetic humanized antibody heavy chain variable region sequence) VL: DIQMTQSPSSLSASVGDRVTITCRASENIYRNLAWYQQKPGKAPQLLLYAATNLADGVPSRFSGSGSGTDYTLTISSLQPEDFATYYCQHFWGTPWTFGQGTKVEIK VH: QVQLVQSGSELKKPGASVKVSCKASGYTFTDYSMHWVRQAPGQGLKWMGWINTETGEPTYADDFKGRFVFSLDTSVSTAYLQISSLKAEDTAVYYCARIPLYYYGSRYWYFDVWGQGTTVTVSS only.
Solution: 6.3

Problem: Answer with the recorded hEphB6-SEAP-: absorbance at 450 nm, percentage with respect to hEphA4-SEAP-His as 100% of 141 (antibody, V domains shown, synthetic humanized antibody heavy chain variable region sequence; synthetic humanized antibody light chain variable region sequence) VH: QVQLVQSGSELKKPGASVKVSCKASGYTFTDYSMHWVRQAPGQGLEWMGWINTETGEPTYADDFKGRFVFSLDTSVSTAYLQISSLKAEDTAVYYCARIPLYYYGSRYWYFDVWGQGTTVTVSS VL: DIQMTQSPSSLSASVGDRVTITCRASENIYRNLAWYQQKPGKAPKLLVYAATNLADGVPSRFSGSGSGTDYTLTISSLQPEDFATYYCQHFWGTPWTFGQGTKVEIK only.
Solution: 5.4

Problem: Answer with the recorded hEphB6-SEAP-: absorbance at 450 nm, percentage with respect to hEphA4-SEAP-His as 100% of 153 (antibody, V domains shown, synthetic humanized antibody heavy chain variable region sequence; synthetic humanized antibody light chain variable region sequence) VH: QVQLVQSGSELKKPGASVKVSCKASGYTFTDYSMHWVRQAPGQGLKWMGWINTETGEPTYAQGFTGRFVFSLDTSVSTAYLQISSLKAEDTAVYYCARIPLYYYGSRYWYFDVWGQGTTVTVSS VL: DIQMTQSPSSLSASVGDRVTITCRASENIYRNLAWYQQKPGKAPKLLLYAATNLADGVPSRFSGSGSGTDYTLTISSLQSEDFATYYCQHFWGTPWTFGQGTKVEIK only.
Solution: 6.2

Problem: Answer with the recorded hEphB6-SEAP-: absorbance at 450 nm, percentage with respect to hEphA4-SEAP-His as 100% of 142 (antibody, V domains shown, synthetic humanized antibody heavy chain variable region sequence; synthetic humanized antibody light chain variable region sequence) VH: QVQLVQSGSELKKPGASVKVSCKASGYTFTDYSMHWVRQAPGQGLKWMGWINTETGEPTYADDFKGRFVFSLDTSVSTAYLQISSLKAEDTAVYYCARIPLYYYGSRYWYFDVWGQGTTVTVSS VL: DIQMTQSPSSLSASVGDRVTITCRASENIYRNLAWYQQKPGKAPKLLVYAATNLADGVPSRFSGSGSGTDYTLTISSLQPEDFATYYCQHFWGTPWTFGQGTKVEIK only.
Solution: 5.6

Problem: Answer with the recorded hEphB6-SEAP-: absorbance at 450 nm, percentage with respect to hEphA4-SEAP-His as 100% of 85 (antibody, V domains shown, constant regions without entry; synthetic humanized antibody light chain variable region sequence; synthetic humanized antibody heavy chain variable region sequence) VL: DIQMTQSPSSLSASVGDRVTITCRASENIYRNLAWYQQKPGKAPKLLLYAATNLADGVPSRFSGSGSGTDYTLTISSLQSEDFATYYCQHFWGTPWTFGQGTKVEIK VH: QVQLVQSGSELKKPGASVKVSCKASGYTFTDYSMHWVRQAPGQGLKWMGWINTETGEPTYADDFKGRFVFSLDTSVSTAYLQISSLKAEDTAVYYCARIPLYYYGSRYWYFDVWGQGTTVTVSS only.
Solution: 5.2
